The binders listed here are annotated with their Bmax (MFI).
- ASSAY TARGET: T1, Human LILRA2 on transiently transfected HEK293-6E cells (human, UniProt Q8N149 24-483)
- T1 construct: whole, on cells; also called hLILRA2
- T1 sequence (Q8N149 24-483): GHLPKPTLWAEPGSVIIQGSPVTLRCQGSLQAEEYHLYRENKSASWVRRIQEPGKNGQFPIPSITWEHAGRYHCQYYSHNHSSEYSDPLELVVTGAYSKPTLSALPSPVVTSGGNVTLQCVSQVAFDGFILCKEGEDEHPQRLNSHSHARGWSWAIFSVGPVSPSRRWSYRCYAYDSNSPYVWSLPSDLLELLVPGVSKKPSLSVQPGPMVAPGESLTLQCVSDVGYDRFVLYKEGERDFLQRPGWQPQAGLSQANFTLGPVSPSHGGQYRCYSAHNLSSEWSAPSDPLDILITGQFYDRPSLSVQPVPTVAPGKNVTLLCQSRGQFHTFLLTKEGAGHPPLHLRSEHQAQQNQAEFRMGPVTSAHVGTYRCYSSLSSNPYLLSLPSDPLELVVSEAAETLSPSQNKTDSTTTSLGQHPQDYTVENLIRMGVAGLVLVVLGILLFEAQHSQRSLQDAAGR
- ASSAY NOTES: flow cytometry, transiently transfected HEK293-6E cells
Quick note: give the figure in MFI, leave out the unit.

Solved entries (count: 3):
# BINDER, UNIT OF MEASURE, READOUT NUMBER
data = [
    ("B2H1-55 (antibody, V domains shown, Humanized variant, human IgG1 / kappa; also called humanized variant B2H1-55; humanized LILRB2 antibody B2H1-55) VH: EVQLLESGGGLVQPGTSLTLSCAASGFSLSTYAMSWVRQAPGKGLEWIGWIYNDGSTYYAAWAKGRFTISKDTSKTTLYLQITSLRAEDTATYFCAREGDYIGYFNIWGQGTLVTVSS VL: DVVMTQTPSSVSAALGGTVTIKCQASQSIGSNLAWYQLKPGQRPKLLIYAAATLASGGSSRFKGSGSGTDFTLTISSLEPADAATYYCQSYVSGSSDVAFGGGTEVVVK", "MFI", 37.7),
    ("B2H1-35 (antibody, V domains shown, Humanized variant, human IgG1 / kappa) VH: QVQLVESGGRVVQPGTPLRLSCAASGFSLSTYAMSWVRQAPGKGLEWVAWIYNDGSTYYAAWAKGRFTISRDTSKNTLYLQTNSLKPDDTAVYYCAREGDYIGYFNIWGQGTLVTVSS VL: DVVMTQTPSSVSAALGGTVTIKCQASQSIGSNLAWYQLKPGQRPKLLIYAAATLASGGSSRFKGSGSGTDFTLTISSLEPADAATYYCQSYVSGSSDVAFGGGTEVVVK", "MFI", 33.6),
    ("B2H1-52 (antibody, V domains shown, Humanized variant, human IgG1 / kappa) VH: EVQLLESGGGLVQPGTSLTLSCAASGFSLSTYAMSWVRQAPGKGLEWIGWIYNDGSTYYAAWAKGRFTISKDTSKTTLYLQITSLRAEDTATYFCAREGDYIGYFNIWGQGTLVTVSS VL: DVVMTQSPSSVSASLGDRVTITCQASQSIGSNLAWYQQKPGQAPKLLIYAAATLASGVPSRFKGSGSGTDFTLTITSLQPADFATYYCQSYVSGSSDVAFGGGTKVEIK", "MFI", 36.1),
]

For the binder B2H1-11 (antibody, V domains shown, Humanized variant, human IgG1 / kappa) VH: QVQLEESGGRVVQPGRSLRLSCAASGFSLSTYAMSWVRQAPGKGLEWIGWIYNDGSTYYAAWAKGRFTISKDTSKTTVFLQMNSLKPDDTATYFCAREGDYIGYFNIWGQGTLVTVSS VL: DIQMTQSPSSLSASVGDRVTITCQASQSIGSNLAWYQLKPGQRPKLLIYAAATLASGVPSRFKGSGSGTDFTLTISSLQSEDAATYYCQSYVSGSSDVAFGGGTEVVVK , what Bmax (MFI) is on record?
36.1
